# Test details: gradient 5% acetonitrile 3 min, to 50% in 2 min, to 85% in 15 min, held 3 min, 100 µL/min
# Assay conditions: column: Zorbax Extend-C18 2.1 x 50 mm; eluents: water / acetonitrile, 0.1% formic acid
Parameter: RP-LC retention time (s)

{"Compound": "O=C1CCC2(CCN1)CCN(C(=O)C1CCCCC1)CC2", "Result unit": "s", "RP-LC retention time": 669}
{"Compound": "O=C(NCc1ccc(-c2noc(-c3cc(F)ccc3F)n2)s1)C1CC1", "Result unit": "s", "RP-LC retention time": 932}
{"Compound": "CCc1ccc(NC(=O)CSc2nnc3c4cc(-c5ccc(OC)cc5)nn4ccn23)cc1", "Result unit": "s", "RP-LC retention time": 946}
{"Compound": "CS(=O)(=O)N1CCC(C(=O)Nc2ccc(Cl)cc2)Oc2ccccc21 (stereo not given)", "Result unit": "s", "RP-LC retention time": 924}
{"Compound": "CCCS(=O)(=O)c1nc2ccc(NS(C)(=O)=O)cc2s1", "Result unit": "s", "RP-LC retention time": 755}

* * *

# Test details: gradient 5% acetonitrile 3 min, to 50% in 2 min, to 85% in 15 min, held 3 min, 100 µL/min
# Assay conditions: column: Zorbax Extend-C18 2.1 x 50 mm; eluents: water / acetonitrile, 0.1% formic acid
Parameter: RP-LC retention time (s)

The cases that follow already have their RP-LC retention time on record.
{"Compound": "O=c1ccn(-c2ccc(Cl)cc2)nc1-c1nc(-c2ccccc2)no1", "Reported measurement": 938}
{"Compound": "CCCC(=O)Nc1ccc2c(c1)CN(C(=O)Cc1ccc(C)cc1)C(C(=O)N(C)C)C2 (stereo not given)", "Reported measurement": 748}
{"Compound": "COc1ccccc1CNC(=O)c1cn2c(n1)CCCC2", "Reported measurement": 589}
{"Compound": "Cc1cc(=O)n(CC(=O)Nc2ccc3c(c2)OCCO3)c(N2CCCCC2)n1", "Reported measurement": 645}
{"Compound": "Cn1c(=O)oc2cc(-c3noc(-c4cccc(F)c4)n3)ccc21", "Reported measurement": 1020}

1. Cc1cc(C)cc(NC(=O)c2cc(C(C)C)n3nccc3n2)c1
2. CCCCNC(=O)C1CCN(C(=O)Nc2ccc(NC(=O)Nc3ccccc3)cc2)CC1
Q) Param pair: 1 , 2 . Output: the one whose RP-LC retention time is numerically greater. To answer, give the label that identifies your chosen option.
A) 1
(1: 1260 s, 2: 729 s)

A. Cc1ccc(CCNC(=O)C2CCCN(c3nnc(C)c4c(C)n(-c5ccc(C)cc5)nc34)C2)cc1 (stereo not given)
B. Cc1ccc(-c2nc(CN(c3ccccc3)S(=O)(=O)c3cccs3)c(C)o2)cc1
Q) Which has the smaller recorded RP-LC retention time, A or B ? When you have decided, please share the label of that item.
A) A

* * *

# Test details: gradient 5% acetonitrile 3 min, to 50% in 2 min, to 85% in 15 min, held 3 min, 100 µL/min
# Assay conditions: column: Zorbax Extend-C18 2.1 x 50 mm; eluents: water / acetonitrile, 0.1% formic acid
Parameter: RP-LC retention time (s)

{"Molecule": "COc1ccccc1C(=O)N1CCN(c2ccc(-c3nc(C)c(C)s3)cn2)CC1", "Parameter": "RP-LC retention time", "Reported measurement": 851}
{"Molecule": "O=C(Cc1ccc(F)cc1)N(CC1CCOC1)C1CC1 (stereo not given)", "Parameter": "RP-LC retention time", "Reported measurement": 794}
{"Molecule": "Cc1cccc(N2CCN(C(=O)CCC3CCN(c4cc(NC5CC5)ncn4)CC3)CC2)c1", "Parameter": "RP-LC retention time", "Reported measurement": 717}

I. O=C(Cn1ncc2c(c1=O)N(CC1CC1)C(=O)CS2)NCc1ccccc1Cl
II. COc1cc(OC)cc(C(=O)Nc2nc3c(s2)Cc2c(Br)ccc(OC)c2-3)c1
Q) Response body: label of entry with the larger RP-LC retention time; valid values I , II . Write down the label of the entry you select.
A) II
(II: 1210 s, I: 789 s)
